- Test system: E. coli 14
- measurement_description: MIC, liquid medium test tube series dilution test
- Type: cell-based
- measurement_conditions: E. coli 14, 24 hours, 37°C
measurement_type: MIC

> print(dat)
                                   compound           value
1  CN(C(=O)N[C@@H](C(=O)N[C@@H]1C(=O)N2[C@@H]1SC(C)(C)[C@@H]2C(=O)O)c1ccccc1)C(=O)c1ccccc1Cl  < 0.8 units/ml
2  CSc1ccc(C(NC(=O)N2CCNC2=O)C(=O)N[C@@H]2C(=O)N3[C@@H]2SC(C)(C)[C@@H]3C(=O)O)cc1 (stereo partly drawn) [Example 54]   6,25 units/ml
3  CCCCOC(=O)N(C)C(=O)N[C@@H](C(=O)N[C@@H]1C(=O)N2[C@@H]1SC(C)(C)[C@@H]2C(=O)O)c1ccccc1 [Example 98]   3.12 units/ml
4  CN(C(=O)N[C@@H](C(=O)N[C@@H]1C(=O)N2[C@@H]1SC(C)(C)[C@@H]2C(=O)O)c1ccccc1)C(=O)c1cccs1 [Example 37]  < 0.8 units/ml
5  CN(C(=O)CCCCl)C(=O)N[C@@H](C(=O)N[C@@H]1C(=O)N2[C@@H]1SC(C)(C)[C@@H]2C(=O)O)c1ccccc1 [Example 2]    3.1 units/ml
6  Cc1ccc(C(NC(=O)N(C)C(=O)c2ccccc2)C(=O)N[C@@H]2C(=O)N3[C@@H]2SC(C)(C)[C@@H]3C(=O)O)cc1 (stereo partly drawn)  0.8-4 units/ml

---

- Test system: Psdm. aerug. Bonn
- measurement_description: MIC, liquid medium test tube series dilution test
- Format: cell-based, Pseudomonas aerug.
- measurement_conditions: 24 hours, 37°C
- Procedure: The chemotherapeutic activity of the new penicillins was tested in vivo and in vitro. The in vitro inhibition values (MIC = minimum inhibition concentration (see Tables 1 and 2) were determined in a liquid medium in the test tube series dilution test, with readings being taken after 24 hours' incubation at 37°C. The MIC is indicated by the non-turbid test tube in the dilution series. A complete medium of the following composition was used as the nutrient medium: […]
Mark met only for MIC values smaller than 20 units/ml; exact matches and larger values are not met.

compound	class_assignment
CC(=O)N(C(=O)N[C@@H](C(=O)N[C@@H]1C(=O)N2[C@@H]1SC(C)(C)[C@@H]2C(=O)O)c1ccccc1)c1ccccc1 [Example 130]	not met
CCCCOC(=O)N(C)C(=O)N[C@@H](C(=O)N[C@@H]1C(=O)N2[C@@H]1SC(C)(C)[C@@H]2C(=O)O)c1ccccc1 [Example 12]	not met
CN(C(=O)N[C@@H](C(=O)N[C@@H]1C(=O)N2[C@@H]1SC(C)(C)[C@@H]2C(=O)O)c1ccccc1)C(=O)c1cccc(Cl)c1 [Example 117]	met
CC1(C)S[C@@H]2[C@H](NC(=O)[C@H](NC(=O)N3CCNC3=S)c3ccccc3)C(=O)N2[C@H]1C(=O)O [Example 147 A]	not met
CN(C(=O)C=Cc1ccccc1)C(=O)N[C@@H](C(=O)N[C@@H]1C(=O)N2[C@@H]1SC(C)(C)[C@@H]2C(=O)O)c1ccccc1 [Example 63]	met
CC1(C)S[C@@H]2[C@H](NC(=O)[C@H](N)c3ccccc3)C(=O)N2[C@H]1C(=O)O [Ampicillin, D(-)-α-Aminobenzylpenicillin, reference compound]	not met
COC(=O)N(C)C(=O)N[C@H](C(=O)N[C@@H]1C(=O)N2[C@@H]1SC(C)(C)[C@@H]2C(=O)O)c1c(Cl)cccc1Cl [Example 8]	not met
C=CCOC(=O)N(C)C(=O)N[C@@H](C(=O)N[C@@H]1C(=O)N2[C@@H]1SC(C)(C)[C@@H]2C(=O)O)c1ccccc1 [Example 68]	met
CN(C(=O)CCCCl)C(=O)N[C@@H](C(=O)N[C@@H]1C(=O)N2[C@@H]1SC(C)(C)[C@@H]2C(=O)O)c1ccccc1 [Example 88]	not met
CCCCOC(=O)N(C)C(=O)N[C@@H](C(=O)N[C@@H]1C(=O)N2[C@@H]1SC(C)(C)[C@@H]2C(=O)O)c1ccccc1 [Example 98]	met
CN(C(=O)N[C@@H](C(=O)N[C@@H]1C(=O)N2[C@@H]1SC(C)(C)[C@@H]2C(=O)O)c1ccccc1)C(=O)c1ccccc1Br [Example 128]	met
Cc1ccccc1C(=O)N(C)C(=O)N[C@@H](C(=O)N[C@@H]1C(=O)N2[C@@H]1SC(C)(C)[C@@H]2C(=O)O)c1ccccc1 [Example 129]	met
CN(C(=O)CCCCl)C(=O)N[C@@H](C(=O)N[C@@H]1C(=O)N2[C@@H]1SC(C)(C)[C@@H]2C(=O)O)c1ccccc1 [Example 24]	not met
CCC(=O)N(C(=O)N[C@@H](C(=O)N[C@@H]1C(=O)N2[C@@H]1SC(C)(C)[C@@H]2C(=O)O)c1ccccc1)c1ccccc1 [Example 143]	not met
CCCCCCCCCCCCCCCCN(C(C)=O)C(=O)N[C@@H](C(=O)N[C@@H]1C(=O)N2[C@@H]1SC(C)(C)[C@@H]2C(=O)O)c1ccccc1 [Example 74]	not met
